Just for reference, patent US20250147039A1 is where these values come from.

test-details: Alkali metal dependent formation of 1,5-cz-Lig and 1,4-cz-Lig isomers from Lig at pH 10.2 (Chart 14)
Assay type: physicochemical
experimental-conditions: B: 1 day at 80° C.; Borate/(M^I)2CO3 buffer pH 10.2
Would you please tag the item Satisfied when its conversion to 1,4-cz-Lig isomer, Cs^I is 30% or above, and Not satisfied when it is below?

>>> assigned_class("C#Cc1cccc(CN2CCN(CC(=O)O)CCN(Cc3cc(-c4ccccc4)cc(CN=[N+]=[N-])n3)CCN(CC(=O)O)CC2)n1")
"Satisfied"
>>> assigned_class("C#Cc1cccc(CN2CCN(CC(=O)O)CCN(Cc3cccc(CN=[N+]=[N-])n3)CCN(CP(=O)(O)O)CC2)n1")
"Satisfied"
>>> assigned_class("C#CCNC(=O)CN1CCN(CC(=O)O)CCN(Cc2cc(-c3ccccc3)cc(CN=[N+]=[N-])n2)CCN(CC(=O)O)CC1")
"Not satisfied"
>>> assigned_class("C#Cc1cccc(CN2CCNCCN(Cc3cccc(CN=[N+]=[N-])n3)CCN(CC(=O)O)CC2)n1")
"Not satisfied"
>>> assigned_class("C#Cc1cccc(CN2CCN(CP(=O)(O)c3ccccc3)CCN(Cc3cccc(CN=[N+]=[N-])n3)CCN(CP(=O)(O)c3ccccc3)CC2)n1")
"Satisfied"
>>> assigned_class("C#Cc1cccc(CN2CCN(CP(=O)(O)O)CCN(Cc3cccc(CN=[N+]=[N-])n3)CCN(CP(=O)(O)O)CC2)n1")
"Satisfied"
>>> assigned_class("C#Cc1cccc(CN2CCN(CP(=O)(O)OCC)CCN(Cc3cccc(CN=[N+]=[N-])n3)CCN(CP(=O)(O)OCC)CC2)n1")
"Not satisfied"

* * *

test-details: Formation of 1,5-cz-[Ln(Lig)] from Lig and Ln^III ions (metal dependent click-zip), MOPS/NaOH buffer pH 7.0, analytical HPLC (Charts 1, 2)
experimental-conditions: Sm^III; after 1 hour at 80° C.; MOPS/NaOH buffer pH 7.0
conversion to 1,5-cz-[Ln(Lig)], Sm^III reference
measurement-name: conversion to 1,5-cz-[Ln(Lig)], Sm^III (%)

>>> numeric_readout("CC(C)(N)C#Cc1cccc(CN2CCN(CC(=O)O)CCN(Cc3cc(-c4ccccc4)cc(CN=[N+]=[N-])n3)CCN(CC(=O)O)CC2)n1")
2
>>> numeric_readout("C#Cc1cccc(CN2CCN(CC(=O)O)CCN(Cc3cc(N(C)C)cc(CN=[N+]=[N-])n3)CCN(CC(=O)O)CC2)n1")
5
>>> numeric_readout("C#Cc1cccc(CN2CCN(CC(=O)O)CCN(Cc3cc(C(F)(F)F)cc(CN=[N+]=[N-])n3)CCN(CC(=O)O)CC2)n1")
3
>>> numeric_readout("C#Cc1cccc(CN2CCN(CC(=O)O)CCN(Cc3cc(C(=O)OC)cc(CN=[N+]=[N-])n3)CCN(CC(=O)O)CC2)n1")
1
>>> numeric_readout("C#Cc1cccc(CN2CCN(CCC(=O)O)CCN(Cc3cccc(CN=[N+]=[N-])n3)CCN(CCC(=O)O)CC2)n1")
0
>>> numeric_readout("C#Cc1cccc(CN2CCN(CC(=O)O)CCN(Cc3cccc(CN=[N+]=[N-])n3)CCN(CP(=O)(O)O)CC2)n1")
5
>>> numeric_readout("[N-]=[N+]=NCc1cccc(CN2CCN(CC(=O)O)CCN(Cc3cccc(C#CC4CCNCC4)n3)CCN(CC(=O)O)CC2)n1")
0

* * *

test-details: Dissociation of chelates in aq. 0.1M HCl at RT (acid decomplexation kinetic inertness) (Chart 20)
Type: physicochemical
experimental-conditions: 1 hour
fraction of intact chelate reference
measurement-name: fraction of intact chelate

>>> result("O=C1C[N@@]2CC[N@]3CC[N@@](CC[N@](CC2)Cc2cccc(n2)-c2cnnn2Cc2cc(-c4ccccc4)cc(n2)C3)CC(=O)[O][Cd][O]1")
"100%"
>>> result("O=C1C[N@@]2CC[N@]3CC[N@@](CC[N@](CC2)Cc2cccc(n2)-c2cnnn2Cc2cc(-c4ccccc4)cc(n2)C3)CC(=O)[O][Y][O]1")
"100%"
>>> result("O=C1C[N@@]2CC[N@]3CC[N@@](CC[N@](CC2)Cc2cccc(n2)-c2cnnn2Cc2cc(-c4ccccc4)cc(n2)C3)CC(=O)[O][Er][O]1")
"100%"
>>> result("O=C1C[N@@]2CC[N@]3CC[N@@](CC[N@](CC2)Cc2cccc(n2)-c2cnnn2Cc2cc(-c4ccccc4)cc(n2)C3)CC(=O)[O][Lu][O]1")
"100%"
>>> result("O=C1C[N@@]2CC[N@]3CC[N@@](CC[N@](CC2)Cc2cccc(n2)-c2cnnn2Cc2cc(-c4ccccc4)cc(n2)C3)CC(=O)[O][Ho][O]1")
"100%"
>>> result("O=C([O-])CN1CCN2CCN(CC(=O)[O-])CCN(CC1)Cc1cccc(n1)-c1cnnn1Cc1cc(-c3ccccc3)cc(n1)C2.[Ca+2]")
"39%"
>>> result("O=C1C[N@@]2CC[N@]3CC[N@@](CC[N@](CC2)Cc2cccc(n2)-c2cn(nn2)Cc2cc(-c4ccccc4)cc(n2)C3)CC(=O)[O][Cd][O]1")
"100%"
>>> result("O=C1C[N@@]2CC[N@]3CC[N@@](CC[N@](CC2)Cc2cccc(n2)-c2cnnn2Cc2cc(-c4ccccc4)cc(n2)C3)CC(=O)[O][Gd][O]1")
"100%"
>>> result("O=C1C[N@@]2CC[N@]3CC[N@@](CC[N@](CC2)Cc2cccc(n2)-c2cnnn2Cc2cc(-c4ccccc4)cc(n2)C3)CC(=O)[O][Nd][O]1")
"99%"
>>> result("O=C1C[N@@]2CC[N@]3CC[N@@](CC[N@](CC2)Cc2cccc(n2)-c2cnnn2Cc2cc(-c4ccccc4)cc(n2)C3)CC(=O)[O][Dy][O]1")
"100%"

* * *

test-details: Formation of 1,5-cz-[Ln(Lig)] from Lig and Ln^III ions (metal dependent click-zip), MOPS/NaOH buffer pH 7.0, analytical HPLC (Charts 1, 2)
experimental-conditions: Ho^III; after 1 hour at 80° C.; MOPS/NaOH buffer pH 7.0
conversion to 1,5-cz-[Ln(Lig)], Ho^III reference
measurement-name: conversion to 1,5-cz-[Ln(Lig)], Ho^III (%)

>>> numeric_readout("[N-]=[N+]=NCc1cccc(CN2CCN(CC(=O)O)CCN(Cc3cccc(C#Cc4ccccc4)n3)CCN(CC(=O)O)CC2)n1 [TD944]")
1
>>> numeric_readout("C#Cc1cccc(CN2CCN(CC(=O)O)CCN(Cc3cc(-c4ccccc4)cc(CN=[N+]=[N-])n3)CCN(CC(=O)O)CC2)n1 [TD647]")
21
>>> numeric_readout("C#Cc1cccc(CN2CCN(CCC(=O)O)CCN(Cc3cccc(CN=[N+]=[N-])n3)CCN(CCC(=O)O)CC2)n1 [TD801]")
0
>>> numeric_readout("C#Cc1cccc(CN2CCN(CC(=O)NCC(=O)O)CCN(Cc3cc(-c4ccccc4)cc(CN=[N+]=[N-])n3)CCN(CC(=O)NCC(=O)O)CC2)n1 [TD778]")
17
>>> numeric_readout("C#Cc1cccc(CN2CCN(CC(N)=O)CCN(Cc3cc(-c4ccccc4)cc(CN=[N+]=[N-])n3)CCN(CC(N)=O)CC2)n1 [TD779]")
10
>>> numeric_readout("C#Cc1cccc(CN2CCN(CC(=O)O)CCN(Cc3cccc(CN=[N+]=[N-])n3)CCN(CP(=O)(O)O)CC2)n1 [TD714]")
26
>>> numeric_readout("[N-]=[N+]=NCc1cccc(CN2CCN(CC(=O)O)CCN(Cc3cccc(C#CC4CC4)n3)CCN(CC(=O)O)CC2)n1 [TD943]")
2

* * *

conversion to 1,4-cz-Lig isomer, K^I reference
test-details: Alkali metal dependent formation of 1,5-cz-Lig and 1,4-cz-Lig isomers from Lig at pH 10.2 (Chart 14)
Format: physicochemical
experimental-conditions: B: 1 day at 80° C.; Borate/(M^I)2CO3 buffer pH 10.2
measurement-name: conversion to 1,4-cz-Lig isomer, K^I (%)

>>> numeric_readout("C#Cc1cccc(CN2CCN(CC(=O)O)CCN(Cc3cccc(CN=[N+]=[N-])n3)CCN(CP(=O)(O)O)CC2)n1 [TD714]")
46
>>> numeric_readout("C#Cc1cccc(CN2CCN(CP(=O)(O)O)CCN(Cc3cccc(CN=[N+]=[N-])n3)CCN(CP(=O)(O)O)CC2)n1 [TD581]")
32
>>> numeric_readout("C#Cc1cccc(CN2CCN(CC(=O)O)CCN(Cc3cc(-c4ccccc4)cc(CN=[N+]=[N-])n3)CCN(CC(=O)O)CC2)n1 [TD647]")
40
>>> numeric_readout("C#Cc1cccc(CN2CCN(CP(=O)(O)c3ccccc3)CCN(Cc3cccc(CN=[N+]=[N-])n3)CCN(CP(=O)(O)c3ccccc3)CC2)n1 [TD921]")
31

* * *

conversion to 1,5-cz-[Ln(Lig)], Tb^III reference
test-details: Formation of 1,5-cz-[Ln(Lig)] from Lig and Ln^III ions (metal dependent click-zip), MOPS/NaOH buffer pH 7.0, analytical HPLC (Charts 1, 2)
experimental-conditions: Tb^III; after 1 week at 80° C.; MOPS/NaOH buffer pH 7.0
measurement-name: conversion to 1,5-cz-[Ln(Lig)], Tb^III

>>> result("C#Cc1cccc(CN2CCN(CC(N)=O)CCN(Cc3cc(-c4ccccc4)cc(CN=[N+]=[N-])n3)CCN(CC(N)=O)CC2)n1 [TD779]")
"0%"
>>> result("C#Cc1cccc(CN2CCN(CC(=O)O)CCN(Cc3cc(-c4ccc(C(=O)O)cc4)cc(CN=[N+]=[N-])n3)CCN(CC(=O)O)CC2)n1 [TD742]")
"93%"
>>> result("CC(C)(C)C#Cc1cccc(CN2CCN(CC(=O)O)CCN(Cc3cccc(CN=[N+]=[N-])n3)CCN(CC(=O)O)CC2)n1 [TD959]")
"68%"
>>> result("C#Cc1cccc(CN2CCN(CC(=O)O)CCN(Cc3cc(N(C)C)cc(CN=[N+]=[N-])n3)CCN(CC(=O)O)CC2)n1 [TD1176]")
"94%"
>>> result("[N-]=[N+]=NCc1cccc(CN2CCN(CC(=O)O)CCN(Cc3cccc(C#CC4CC4)n3)CCN(CC(=O)O)CC2)n1 [TD943]")
"56%"
>>> result("[N-]=[N+]=NCc1cc(-c2ccccc2)cc(CN2CCN(CC(=O)O)CCN(Cc3cccc(C#CCN)n3)CCN(CC(=O)O)CC2)n1 [TD722]")
"54%"
>>> result("C#CCNC(=O)CN1CCN(CC(=O)O)CCN(Cc2cc(-c3ccccc3)cc(CN=[N+]=[N-])n2)CCN(CC(=O)O)CC1 [TD425]")
"0%"
>>> result("C#Cc1cccc(CN2CCN(CC(=O)O)CCN(Cc3cc(C(=O)OC(C)(C)C)cc(CN=[N+]=[N-])n3)CCN(CC(=O)O)CC2)n1 [TD1160]")
"0%"
>>> result("C#Cc1cccc(CN2CCN(CC(=O)O)CCN(Cc3cccc(CN=[N+]=[N-])n3)CCN(CC(=O)O)CC2)n1 [TD556]")
"95%"
>>> result("CC(C)(N)C#Cc1cccc(CN2CCN(CC(=O)O)CCN(Cc3cc(-c4ccccc4)cc(CN=[N+]=[N-])n3)CCN(CC(=O)O)CC2)n1 [TD1054]")
"55%"
>>> result("C#Cc1cccc(CN2CCN(CC(=O)O)CCN(Cc3cc(C(F)(F)F)cc(CN=[N+]=[N-])n3)CCN(CC(=O)O)CC2)n1 [TD1063]")
"83%"
>>> result("[N-]=[N+]=NCc1cccc(CN2CCN(CC(=O)O)CCN(Cc3cccc(C#CI)n3)CCN(CC(=O)O)CC2)n1 [TD1204]")
"10%"
>>> result("CC(C)(C#Cc1cccc(CN2CCN(CC(=O)O)CCN(Cc3cccc(CN=[N+]=[N-])n3)CCN(CC(=O)O)CC2)n1)NC(=O)OC(C)(C)C [TD1105]")
"1%"
>>> result("C#Cc1cccc(CN2CCN(CC(=O)O)CCN(Cc3cc(-c4ccccc4)cc(CN=[N+]=[N-])n3)CCN(CC(=O)O)CC2)n1 [TD647]")
"91%"
